Target: T1, 4H626-bN
T1 chain: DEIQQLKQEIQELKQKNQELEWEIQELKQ
Assay: two-hybrid library CCNG1;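 also: natural log of median RNA to DNA barcode read ratio; higher means stronger binding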
Decision: interaction score >= -1 yields True, all other cases yield False.

[
  {
    "binder": "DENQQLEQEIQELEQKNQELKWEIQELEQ [4H1081-bN]",
    "discrete label": "False"
  },
  {
    "binder": "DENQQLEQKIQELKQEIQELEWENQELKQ [4H1348-bN]",
    "discrete label": "True"
  },
  {
    "binder": "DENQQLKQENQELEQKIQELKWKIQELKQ [4H1710-bN]",
    "discrete label": "True"
  },
  {
    "binder": "DKNQQLEQKNQELEQKIQELKWEIQELEQ [4H3497-bN]",
    "discrete label": "False"
  },
  {
    "binder": "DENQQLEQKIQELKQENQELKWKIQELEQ [4H1373-bN]",
    "discrete label": "True"
  },
  {
    "binder": "DKNQQLKQEIQELEQKIQELKWENQELKQ [4H3628-bN]",
    "discrete label": "False"
  },
  {
    "binder": "DKNQQLEQEIQELKQENQELKWEIQELKQ [4H3162-bN]",
    "discrete label": "False"
  }
]
